- EXPERIMENTAL_TARGET: T1, fibroblast activation protein (FAP) on FAP-expressing human WI-38 fibroblasts (human, UniProt Q12884 1-760)
- T1 construct: also called human FAP
- EXPERIMENTAL_PROTOCOL: competitive FACS, WI-38 cells, vs Cy5 tracer m3; A = pIC50 >8.0
Numbered stars: 1 amine (or outer) side, 2 acyl side, 3 side chain; on linkers, the order of the positions; unused ones are H or OH. Bridge positions count the residues as written; N and C are the ends. Square brackets hold non-standard residues; d marks the D form. * marks the point of attachment. TBMB(SCH2CH2NH-DOTA) = O=C(O)CN1CCN(CC(=O)O)CCN(CC(=O)NCCSCc2cc(C[*:1])cc(C[*:2])c2)CCN(CC(=O)O)CC1; mXylylene = c1cc(C[*:1])cc(C[*:2])c1; Hexanoyl = CCCCCC(=O)*
Attribute: pIC50 Category (FACS)

- BINDER: "Ac-MCPPTEFCDHF[dR]D-NH2 (linker 2-8 via mXylylene; SMILES CSCC[C@H](NC(C)=O)C(=O)N[C@H]1CSCc2cccc(c2)CSC[C@@H](C(=O)N[C@@H](CC(=O)O)C(=O)N[C@@H](Cc2c[nH]cn2)C(=O)N[C@@H](Cc2ccccc2)C(=O)N[C@H](CCCNC(=N)N)C(=O)N[C@@H](CC(=O)O)C(N)=O)NC(=O)[C@H](Cc2ccccc2)NC(=O)[C@H](CCC(=O)O)NC(=O)[C@H]([C@@H](C)O)NC(=O)[C@@H]2CCCN2C(=O)[C@@H]2CCCN2C1=O, also called 3BP-3212) [Ac-Met-[Cys(3MeBn)-Pro-Pro-Thr-Glu-Phe-Cys]-Asp-His-Phe-arg-Asp-NH2]"
  pIC50 Category (FACS): "> 8 pIC50"

Attention now turns to another entry.
query: # return recorded pIC50 Category (FACS) for entry Hexanoyl-CPPTQFCD-NH2 (linker 1-7 via TBMB(SCH2CH2NH-DOTA); SMILES CCCCCC(=O)N[C@H]1CSCc2cc(CSCCNC(=O)CN3CCN(CC(=O)O)CCN(CC(=O)O)CCN(CC(=O)O)CC3)cc(c2)CSC[C@@H](C(=O)N[C@@H](CC(=O)O)C(N)=O)NC(=O)[C@H](Cc2ccccc2)NC(=O)[C@H](CCC(N)=O)NC(=O)[C@H]([C@@H](C)O)NC(=O)[C@@H]2CCCN2C(=O)[C@@H]2CCCN2C1=O, also called 3BP-3426) [Hex-[Cys(tMeBn(DOTA-AET))-Pro-Pro-Thr-Gln-Phe-Cys]-Asp-NH2]
result: > 8 pIC50
